test system: huisache (Acacia farnesiana); assay: Test A: field study, control of a natural stand of huisache; type: in vivo; settings: 745 days after application; % of trees with no green foliage or regrowth; g ai/ha: Compound 1 250, fosamine-ammonium 6688, imazapyr 280, metsulfuron-methyl 42
reported.property: % Control 745 DAA (%)

>>> value_measured("COC(=O)c1nc(C2CC2)nc(N)c1Cl [Compound 1]")
33
>>> value_measured("CCOP(=O)(O)C(N)=O [Fosamine]")
0
>>> value_measured("CC(C)C1(C)N=C(c2ncccc2C(=O)O)NC1=O (racemic) [Imazapyr]")
0
>>> value_measured("COC(=O)c1ccccc1S(=O)(=O)NC(=O)Nc1nc(C)nc(OC)n1 [Metsulfuron-methyl]")
0
